target: Metabotropic glutamate receptor 8 (Rattus norvegicus); assay: mGluR8 Gi/Go-coupled signaling modulation – cell-based, rat, thallium flux, HTS, primary screen (AID 488969); settings: HEK293 rat mGluR8, GIRK (G protein-gated inwardly rectifying potassium channel) thallium flux, FluoZin2; at 10 µM; stronger effect = higher value; submaximal glutamate (EC20) added with thallium
The full ranking holds about 110,000 compounds; the median of “z-score” is about -0.1, and the highest 2% start at about 2. Shown is part of a subset that was picked to be rich in the highest values.
Endpoint: z-score
I only need the number, thanks.

{"Compound": "C=C(C)c1cccc(C(C)(C)NC(=O)N2CC(C)OC(C)C2)c1 (configuration not stated)", "z-score": -0.0325}
{"Compound": "N=C1CCCN1CC(=O)c1ccc(Cl)cc1", "z-score": 0.073}
{"Compound": "Cc1cccc(N/C=C/c2onc(C)c2[N+](=O)[O-])c1", "z-score": 1.43}
{"Compound": "CCCCn1c(SCC(=O)N2CCC(C)CC2)nc2ccsc2c1=O", "z-score": -1.86}
{"Compound": "CCC(CC)c1nnc(NC(=O)c2ccc3ccccc3n2)s1", "z-score": 11.4}

Tell me z-score reported for CCN(CC)S(=O)(=O)c1ccc(-c2nnc(SCC(=O)Nc3ccc(OC)c(OC)c3)o2)cc1
0.581

Tell me z-score reported for O=C(Nc1nnc(C(F)(F)F)s1)C1COc2ccccc2O1 (configuration not stated)
-0.109
